# TESTED_SYSTEM: BsCspB (cold shock protein B) (UniProt P32081 1-67)
# Sequence (P32081 whole entry): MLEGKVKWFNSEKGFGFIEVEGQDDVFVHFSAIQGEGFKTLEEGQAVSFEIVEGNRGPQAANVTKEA
# PROTOCOL: intrinsic Trp fluorescence quenching; 100 g/L PEG8; 20 mM disodium phosphate pH 7.0, no added salt stated; fluorescence titration 298 K (0.5, 2.8 or 4 uM protein; table marks a/b not explained in the material); stopped-flow 288 K (60 or 300 nM protein); NMR 298 or 294.4 K with 5% D2O
# PARTICULARS: protein: recombinant; single strand
MEASUREMENT_TYPE: Kd (nM)

In [3]: df
Out[3]:
                  binder  measurement_type  readout_value
0  TTTTTTT (ssDNA) [dT7]                Kd             14
